Below is a list of entries, each paired with its recorded pKd value.
Biological target: T1, CCL8_HUMAN (Homo sapiens, UniProt P80075)
T1 sequence (P80075 24-99): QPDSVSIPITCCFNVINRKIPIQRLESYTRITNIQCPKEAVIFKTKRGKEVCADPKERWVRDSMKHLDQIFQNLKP
Experiment: Biolayer interferometry (BLI) binding
Settings: read-out: Kd, CCL8_HUMAN
Just the number, please; pKd means minus log10 of the concentration in mol/L.

In the examples that follow, each entry is paired with its recorded pKd.
P1181_AMBMA: tick CKBP, Amblyomma maculatum (protein, listed as Amblyomma maculatum) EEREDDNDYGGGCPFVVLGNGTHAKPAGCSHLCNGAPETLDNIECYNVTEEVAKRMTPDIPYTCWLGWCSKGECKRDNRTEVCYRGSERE
7.85
P983_AMBPA: tick CKBP; named P983_AMBCA in Table 1 (protein, Amblyomma cajennense) EDTGTEDDFDYGNTGCPFPVLGNYKSNMTKPVGCKNKCGSGYEVLNDTTPCYVIDQKVFNNMVPLRQYSKCPLGFCENGECKPNDQAEDCYKGREEQK
8.15
P991_AMBCA: tick CKBP, Amblyomma cajennense (protein, Amblyomma cajennense) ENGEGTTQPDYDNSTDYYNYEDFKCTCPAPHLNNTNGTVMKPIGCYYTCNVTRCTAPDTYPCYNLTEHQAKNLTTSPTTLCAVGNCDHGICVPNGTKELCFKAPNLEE
8.06
P467_RHIPU: tick CKBP (evasin), Rhipicephalus pulchellus; RPU-01 stated identical (protein, listed as Rhipicephalus pulchellus) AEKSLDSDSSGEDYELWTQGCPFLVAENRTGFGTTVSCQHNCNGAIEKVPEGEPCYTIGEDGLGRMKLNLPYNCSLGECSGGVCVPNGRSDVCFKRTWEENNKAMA
8.55
P1180_AMBTR: tick CKBP, Amblyomma triste (protein, Amblyomma triste) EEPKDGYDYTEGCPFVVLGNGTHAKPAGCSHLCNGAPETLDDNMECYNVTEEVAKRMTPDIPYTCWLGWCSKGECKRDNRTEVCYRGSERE
8.44
P974_AMBCA: tick CKBP, Amblyomma cajennense; ACA-01 stated identical (protein, Amblyomma cajennense, tick CKBP, Amblyomma cajennense; ACA-01 stated identical) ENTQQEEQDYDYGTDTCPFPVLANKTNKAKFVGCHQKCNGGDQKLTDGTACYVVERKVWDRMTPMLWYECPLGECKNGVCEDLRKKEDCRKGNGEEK
8.59

Would you kindly look at the next entry?
What does the data say about its pKd? Entry: P1243_AMBAM: tick CKBP, Amblyomma americanum; AAM-02 stated identical (protein, listed as Amblyomma americanum) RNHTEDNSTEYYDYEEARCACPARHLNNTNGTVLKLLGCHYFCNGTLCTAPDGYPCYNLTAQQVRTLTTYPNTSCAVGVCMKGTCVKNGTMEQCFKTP
7.66
